Where these numbers come from: patent US20240158475A1

Target: DN-III quality control recombinant protein (produced by Fapon Biotech InC.) (dengue virus)
Experiment: BLI, AMC sensor, antibody captured
Reported values of pKd for individual entries
Convention used: pKd is expressed as -log10 of the molar concentration.

Binder | pKd
Mutation 1-1 (antibody, V domains shown) VH: EVQLQQSGTELVRPGALVKLSCKASGFNIKDYYIHWVKQRPRQGLEWIGWIDPENGKTIYDPKFQDKASITSDTSTNTAYLQLRSLTSEDTAVYYCVTAYFRFVYWGQGTLVTVSA VL: QIVLTQSPAIMSAFPGERVTMTCSASTSVRYMYWHQQKPGSSPRLLIYDTSNLASGVPVRFSGSGSGTSYSLTISRDEAMDAATYYCQQWSSYPRTFGGGTKLEIKR | 9.14

Now for a further binder.
Requested read-out: pKd. Entry: Mutation 1-30 (antibody, V domains shown) VH: EVQLQQSGTELVRPGALVKLSCKASGFNIKDYYVHWVKQRPRQGLEWIGWIDPENGKTIYDPKFQDKASITSDTSTNTAYLQLRSLTSEDTAVYYCVTAYFRFVYWGQGTLVTVSA VL: QIVLTQSPAIMSAFPGERVTMTCSASSSVRYMYWHQQKPGSSPRLLIYDTSNIASGVPVRFSGSGSGTSYSLTISRDEAMDAATYYCQQWSSYPRTFGGGTKLEIKR
9.02
